The binders listed here are annotated with their Percent RBC Binding to Siglec-5.
Target: T1, Human Siglec 5, Fc chimera (R&D Systems) (human, UniProt O15389 17-434, limits assumed)
T1 construct: Bought or recombinant Fc fusion; also called recombinant Siglec-5-Fc; not shown: Fc part
T1 sequence: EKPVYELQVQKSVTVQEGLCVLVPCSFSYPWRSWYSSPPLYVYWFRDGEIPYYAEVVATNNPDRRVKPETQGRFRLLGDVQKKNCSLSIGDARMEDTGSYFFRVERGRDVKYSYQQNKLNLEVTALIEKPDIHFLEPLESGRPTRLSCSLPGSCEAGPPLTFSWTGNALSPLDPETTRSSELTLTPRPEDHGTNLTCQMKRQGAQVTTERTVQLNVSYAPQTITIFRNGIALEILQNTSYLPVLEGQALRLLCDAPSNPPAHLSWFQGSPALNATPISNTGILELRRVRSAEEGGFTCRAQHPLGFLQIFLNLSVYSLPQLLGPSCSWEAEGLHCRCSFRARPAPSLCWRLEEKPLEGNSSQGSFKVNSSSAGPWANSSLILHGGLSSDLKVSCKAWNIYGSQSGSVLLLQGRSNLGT
Experiment: RBC adhesion to plate-bound Siglec-5-Fc, 1.0 ug/ml mAb, percent of binding without antibody
ASSAY ENDPOINT: Percent RBC Binding to Siglec-5 (%)

>>> measured_result("anti-Siglec-5 monoclonal antibody 11H3 (antibody, IgG1, V domains shown) VH: QVQLQQSGPELVKPGASVKVSCKASDYAFTSYNIYWVKQSHGKSLEWIGYIDPYNGGTSYNQTFKGKATLTVDKSSSTAYMHLNSLTSEDSAVYYCAMKVGYEAMDYWGQGTSVTVSS VL: DIQMTQSQKFMSTSVGDRVSVTCKASQNVGTNVAWYQQKPGQSPKALIYSASYRYSGVPDRFTGSGSGTDFTLNISNVQSEDLAEYFCQQFNSYPYTFGGGTKLEIK")
6.17
>>> measured_result("anti-Siglec-5 monoclonal antibody 9A5 (antibody, IgG1, V domains shown) VH: QVQLQQSGPELVEPGASVKVSCKASGYAFTSYNMYWVKQSHGKSLEWIGYIDPYNGGTYYDQKFKGRATLTVDKSSSTAHMHLNSLTSEDSAVYYCVFFYEYDGFPYWGQGTLVTVSA VL: DIVLTQSPTLMSASPGEKVTMTCSASSSVSYMYWYQQKPRSSPKPLIYLTSNLASGVPARFSGSGSGTSYSLTISSMEAEDAATYYCQQWSSNPLTFGAGTKLELK")
5.59
>>> measured_result("anti-Siglec-5 monoclonal antibody 2G5 (antibody, IgG1, V domains shown) VH: EIQLQQSGPELVKPGASVKVSCKASGYSFTDYNMYWVKQSHGKSLEWIGYIDPYNGNTTYNQRFKGKATLTVDKSSSTAFMHLNSLTSEDAAVYYCATFYGFDGFAYWGQGSLVAVSA VL: QAVVTQESALTTSPGETVTLTCRSSTGAVTTSNYANWVQEKPDHLFTGLIGTTNNRAPGVPARFSGSLIGDKAALTITGAQTEDEAIYFCALWYSNHLVFGGGTKLTVLG")
6.73
>>> measured_result("anti-Siglec-5 monoclonal antibody 9B1 (antibody, IgG1, V domains shown) VH: QVQLQQSGAELVKPGASVKLSCKASGYTFTEYTIHWVKQRSGQGLEWIGWFYPGSGSIKYNEKFKDKATLTADKSSSTVYMELSRLTSEDSAVYFCARQEEGGIGFDYWGQGTTLTVSS VL: DVLMTQTPLSLLVSLGDQASISCRSSQSIVHSNGNTYLEWYLQKPGQSPKLLIYKVSIRFSGVPDRFSGSGSGTDFTLKISRVEAEDLGVYYCFQGSHVPWTFGGGTKLEIK")
5.79

All figures here come from patent US20210017275A1.
